AC50 values for the compounds below.
Test system: HMLE_sh_eGFP viability, CellTiter-Glo luminescence, 72 h
protocolDescription: cytotoxicity in HMLE control line with eGFP shRNA, dose response, counter-screen for HMLE_sh_ECad selective toxicity project, cell-based, HMLE_sh_eGFP, luminescence (AID 463074);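 note: counterscreen control line to flag general toxicity for the HMLE_sh_ECad screen; potency for loss of viability as luminescence drops below DMSO wells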

In the examples that follow, each entry is paired with its recorded AC50.
compound	observedResult
CCCC(C)c1nnc(NC(=O)COc2ccc3c(c2)OCO3)s1 (stereo unspecified)	9.04 µM
CCc1ccc(N=Nc2ccc(O)c3[nH]cnc23)cc1	2.06 µM
CCC(C)NCCOc1ccc(C(C)(C)c2ccccc2)cc1 (stereo unspecified)	5.92 µM
CN(Cc1ccco1)c1ncnc2ccc(-c3ccc4c(ccn4C)c3)cc12	3.01 µM
CC(=O)Oc1ccc(C(=O)Nc2ccc(C3(C#N)CCCC3)cc2)cc1	8.24 µM

Short answer for COc1ccc(C(=O)/C=C/c2ccc(OC)c(Cn3nnc4ccccc43)c2)cc1 : AC50 was 6.82 µM

====

System: HMLE_sh_eGFP viability, CellTiter-Glo luminescence, 72 h
protocolDescription: cytotoxicity in HMLE control line with eGFP shRNA, dose response, counter-screen for HMLE_sh_ECad selective toxicity project, cell-based, HMLE_sh_eGFP, luminescence (AID 463074);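 note: counterscreen control line to flag general toxicity for the HMLE_sh_ECad screen; potency for loss of viability as luminescence drops below DMSO wells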
Calls of active or inactive are those of the source.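 Rule for the calls: active = AC50 no more than tenfold above the top dose tested, or full inhibition at every dose with a flat fit (cut at about 19 µM in these data); inconclusive = flat curve fit with inhibition between 30% and 70%, or poor fit; inactive = AC50 more than tenfold above the top dose tested.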
# key: entry, value: AC50

Take a look at these entries with their results.
compound	observedResult
O=C(COCC(=O)Nc1cccc(C(F)(F)F)c1)Nc1cccc(C(F)(F)F)c1	7.59 µM
CN(/N=C/c1cc(Br)cc(Br)c1O)c1cccc(C(F)(F)F)n1	12.7 µM
Cc1csc(N/N=C/c2ccccn2)n1	11 µM
CC(C)c1ccc(N2C(=O)NC(=O)/C(=C\C=C\c3ccco3)C2=O)cc1	> 19.5 µM (inactive)
CCCc1nc(NC2CCCCC2)c(C#N)c2c1COC(C)(C)C2	7.68 µM
CCC(=O)NC(=S)Nc1cccc(Cl)c1N1CCCCC1	9.96 µM
Cc1cc(Br)c(OCc2ccc(C(=O)N/N=C/c3ccc[nH]3)cc2)c(Br)c1	1.32 µM
N#Cc1c(N)nc2c(c1-c1cccc(O)c1)CCCCCC2	16.3 µM

// moving on: another record for AC50
get_value(item= Cc1c(C2(O)CCCCC2)[nH]c2ccc(C(F)(F)F)cc12 , readout=AC50) returns 6.11 µM

====

Tested on: HMLE_sh_eGFP viability, CellTiter-Glo luminescence, 72 h
protocolDescription: cytotoxicity in HMLE control line with eGFP shRNA, dose response, counter-screen for HMLE_sh_ECad selective toxicity project, cell-based, HMLE_sh_eGFP, luminescence (AID 463074);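 note: counterscreen control line to flag general toxicity for the HMLE_sh_ECad screen; potency for loss of viability as luminescence drops below DMSO wells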;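 active = AC50 no more than tenfold above the top dose tested, or full inhibition at every dose with a flat fit (cut at about 19 µM in these data); inconclusive = flat curve fit with inhibition between 30% and 70%, or poor fit; inactive = AC50 more than tenfold above the top dose tested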
Choose one outcome from this list and give only that: t (active), f (inactive)

compound	assignedCategory
C=CCc1cccc(CNc2nc3ccccc3n2CCC)c1O	t

### Prompt Write down the call the test reported for this compound. Item: Cc1[nH]nc2c1C(c1ccc(-c3ccc(Cl)cc3)o1)C(C#N)=C(N)O2 (configuration not stated)
### Response t

### Prompt Query: recorded result category for CCCCCCOc1ccc(OC(=O)c2ccncc2)cc1 in this test
### Response t

### Prompt For COc1ccc2cc(C(=O)N/N=C/c3sc4ccccc4c3O)ccc2c1 , which call appears in the assay record?
### Response t

====

Each item that follows carries a reported AC50.
Tested on: HMLE_sh_eGFP viability, CellTiter-Glo luminescence, 72 h
protocolDescription: cytotoxicity in HMLE control line with eGFP shRNA, dose response, counter-screen for HMLE_sh_ECad selective toxicity project, cell-based, HMLE_sh_eGFP, luminescence (AID 463074);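 note: counterscreen control line to flag general toxicity for the HMLE_sh_ECad screen; potency for loss of viability as luminescence drops below DMSO wells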

Completed entries (count: 2):
entrySmiles	reportedEndpoint	observedResult
Cc1cccc(NC(=O)c2nc[nH]c2C(=O)NCCCNC(=O)c2[nH]cnc2C(=O)Nc2cccc(C)c2)c1	AC50	6.71 µM
Oc1ccccc1N1CCN(c2ncnc3sc(-c4ccccc4)cc23)CC1	AC50	3.53 µM

# evaluate next
AC50 in this record for O=c1c2ccccc2nc(/C=C/c2ccc(Br)cc2)n1CCO : 16.6 µM

Hello, the source for this data is PubChem BioAssay AID463074, in case you need it.
